Sourced from patent US20240307393A1

Record form. Attribute: Cell survival rate (%) Combined treatment with abemaciclib. Fill in for each entry.
- Tested on: colorectal cancer cell line HCT116
- measurement.description: WST-1 cancer cell killing (cell survival) test in colorectal cancer cell line HCT116
- Assay type: cell-based, human
- experimental.context: 48 hours, antidepressant at Table 1 concentration combined with 0.2 μM abemaciclib

Take a look at these entries with their results.
# compound, reading
records = [
    ("CNCCCN1c2ccccc2CCc2ccccc21 [Desipramine]", "28%"),
    ("CN(C)CCCN1c2ccccc2CCc2ccc(Cl)cc21 [Clomipramine]", "32%"),
    ("CN(C)CCC=C1c2ccccc2CCc2ccccc21 [Amitriptyline]", "64%"),
    ("CN(C)CCCN1c2ccccc2CCc2ccccc21 [Imipramine]", "58%"),
]

Next compound, please.
Ask: // returns reported Cell survival rate (%) Combined treatment with abemaciclib for input CCN(CC)c1ccc(C(c2ccc(N(CC)CC)cc2)=c2ccc3c(c2)CCc2ccccc2[N+]=3CCCN(C)C)cc1 [Imipramine blue]
Result: 39%

* * *

- System: lung cancer cell line H460
- measurement.description: WST-1 cancer cell killing (cell survival) test in lung cancer cell line H460
- Format: cell-based
- experimental.context: 48 hours, antidepressant at Table 1 concentration combined with 50 μM ribociclib
test.readout: Cell survival rate (%) Combined treatment with ribociclib
Numbers only, in %.

Sample records with Cell survival rate (%) Combined treatment with ribociclib:
# compound, reading
records = [
    ("CNCCCN1c2ccccc2CCc2ccccc21 [Desipramine]", 16),
    ("CN(C)CCCN1c2ccccc2CCc2ccc(Cl)cc21 [Clomipramine]", 34),
    ("CCN(CC)c1ccc(C(c2ccc(N(CC)CC)cc2)=c2ccc3c(c2)CCc2ccccc2[N+]=3CCCN(C)C)cc1 [Imipramine blue]", 36),
    ("CN(C)CCCN1c2ccccc2CCc2ccccc21 [Imipramine]", 47),
]

Attention now turns to another entry.
Ask: Query: Cell survival rate (%) Combined treatment with ribociclib; subject: CN(C)CCC=C1c2ccccc2CCc2ccccc21 [Amitriptyline]
Result: 32

* * *

- Tested on: lung cancer cell line H460
- measurement.description: WST-1 cancer cell killing (cell survival) test in lung cancer cell line H460
- Assay type: cell-based
- experimental.context: 48 hours, antidepressant at Table 1 concentration combined with 15 μM palbociclib
Binarize Cell survival rate (%) Combined treatment with palbociclib at 40%; below is 1, at or above is 0.

Study these solved cases before continuing.
# smiles.str, assigned.label
measured = [
    ("CNCCCN1c2ccccc2CCc2ccccc21", 1),
    ("CN(C)CCCN1c2ccccc2CCc2ccccc21", 0),
    ("CN(C)CCCN1c2ccccc2CCc2ccc(Cl)cc21", 1),
    ("CCN(CC)c1ccc(C(c2ccc(N(CC)CC)cc2)=c2ccc3c(c2)CCc2ccccc2[N+]=3CCCN(C)C)cc1", 1),
]

Kindly review the next compound as well.
Ask: Is Cell survival rate (%) Combined treatment with palbociclib strictly under 40% for the entry "CN(C)CCC=C1c2ccccc2CCc2ccccc21" ?
Result: 0

* * *

Kindly supply the reported Cell survival rate (%) Combined treatment with abemaciclib values for the records listed here.
- System: breast cancer cell line MCF7
- measurement.description: WST-1 cancer cell killing (cell survival) test in breast cancer cell line MCF7
- Type: cell-based
- experimental.context: 48 hours, antidepressant at Table 1 concentration combined with 10 μM abemaciclib
Answers are plain numbers, in %.

Some compounds with known Cell survival rate (%) Combined treatment with abemaciclib results, for comparison:
# smiles.str, unit.of.measure, reading
records = [
    ("CN(C)CCC=C1c2ccccc2CCc2ccccc21", "%", 21),
    ("CN(C)CCCN1c2ccccc2CCc2ccc(Cl)cc21", "%", 37),
    ("CCN(CC)c1ccc(C(c2ccc(N(CC)CC)cc2)=c2ccc3c(c2)CCc2ccccc2[N+]=3CCCN(C)C)cc1", "%", 43),
]

Ask: What measured Cell survival rate (%) Combined treatment with abemaciclib goes with "CN(C)CCCN1c2ccccc2CCc2ccccc21" ?
Result: 34
